The values you see were collected from paper PMC6473159.

- Test system: ZIKV Paraiba/2015
- assayInfo: Microplaque reduction assay, ZIKV Paraiba/2015 in Vero cells, post-infection treatment
- Assay type: cell-based
- measurementContext: African green monkey, Vero cells infected with ZIKV Paraiba/2015, Paraiba/2015, Vero cells, post-treatment, 36 h; read-out: SI (selective index, CC50/IC50)
parameter: selectivity ratio at 36 h
Would you mind answering with just the numeric figure?

Query: Give the value of selectivity ratio at 36 h reported for the following: CCOC(=O)c1c(CSc2ccccc2)n(C)c2cc(Br)c(O)c(CN(C)C)c12
Result: 4.11

Query: Give the value of selectivity ratio at 36 h reported for the following: O=C(O)C1=CC(=C(c2ccc(O)c(C(=O)O)c2)c2ccc(O)c(C(=O)O)c2)C=CC1=O
Result: 72.1

###

Task for the reader: assign each of the following molecules its reported IC50.
- System: ZIKV Paraiba/2015
- assayInfo: Microplaque reduction assay, ZIKV Paraiba/2015 in Vero cells, post-infection treatment
- Type: cell-based
- measurementContext: Zika virus, Vero, 36 h
Your answer is read as µM, so omit the unit and give the number.

Query: Give the value of IC50 reported for the following: O=C(O)C1=CC(=C(c2ccc(O)c(C(=O)O)c2)c2ccc(O)c(C(=O)O)c2)C=CC1=O [ATA, aurintricarboxylic acid]
Result: 13.9

Query: Give the value of IC50 reported for the following: CCOC(=O)c1c(CSc2ccccc2)n(C)c2cc(Br)c(O)c(CN(C)C)c12 [ARB, Arbidol]
Result: 18.2

###

- Test system: ZIKV Uganda/1947
- assayInfo: Microplaque reduction assay, ZIKV Uganda/1947 in Vero cells
- measurementContext: African green monkey, Vero cells infected with ZIKV Uganda/1947
parameter: selectivity ratio at 48 h

Query: Give the value of selectivity ratio at 48 h reported for the following: O=C(O)C1=CC(=C(c2ccc(O)c(C(=O)O)c2)c2ccc(O)c(C(=O)O)c2)C=CC1=O [ATA, aurintricarboxylic acid]
Result: > 66.3

###

- Tested on: ZIKV Puerto Rico/2015
- assayInfo: Microplaque reduction assay, ZIKV Puerto Rico/2015 in Vero cells
- measurementContext: African green monkey, Vero cells infected with ZIKV Puerto Rico/2015
parameter: selectivity ratio at 48 h

Query: Quote selectivity ratio at 48 h with test system ZIKV Puerto Rico/2015 for O=C(O)C1=CC(=C(c2ccc(O)c(C(=O)O)c2)c2ccc(O)c(C(=O)O)c2)C=CC1=O
Result: > 57

###

- assayInfo: Cell viability assay (CellTiter 96), A549 cells
- Format: cell-based, human
- measurementContext: human, reading time not stated at the place (assay read at 36 and 72 h)
parameter: CC50

Query: Give the value of CC50 reported for the following: O=C(O)C1=CC(=C(c2ccc(O)c(C(=O)O)c2)c2ccc(O)c(C(=O)O)c2)C=CC1=O [ATA, aurintricarboxylic acid]
Result: > 1000 µM

###

- Test system: ZIKV Nigeria/1968
- assayInfo: Microplaque reduction assay, ZIKV Nigeria/1968 in Vero cells
- measurementContext: African green monkey, Vero cells infected with ZIKV Nigeria/1968
parameter: selectivity ratio at 60 h

Query: Quote selectivity ratio at 60 h with test system ZIKV Nigeria/1968 for O=C(O)C1=CC(=C(c2ccc(O)c(C(=O)O)c2)c2ccc(O)c(C(=O)O)c2)C=CC1=O
Result: > 62.6

###

- System: ZIKV Paraiba/2015
- assayInfo: Microplaque reduction assay, pre-treatment of Vero cells before ZIKV Paraiba/2015 infection
- Type: cell-based
- measurementContext: African green monkey, pre-treatment 12 h, read-out: SI (selective index, CC50/IC50)
parameter: selectivity ratio at 12 h

Query: Give the value of selectivity ratio at 12 h reported for the following: O=C(O)C1=CC(=C(c2ccc(O)c(C(=O)O)c2)c2ccc(O)c(C(=O)O)c2)C=CC1=O [ATA, aurintricarboxylic acid]
Result: > 69.8

###

- assayInfo: Cell viability assay (CellTiter 96), Vero cells
- Format: cell-based, African green monkey
- measurementContext: African green monkey, 72 h post-treatment
parameter: CC50 at 72 h (µM)
Your answer is read as µM, so omit the unit and give the number.

Query: Give the value of CC50 at 72 h reported for the following: CCOC(=O)c1c(CSc2ccccc2)n(C)c2cc(Br)c(O)c(CN(C)C)c12 [ARB, Arbidol]
Result: 59.4

###

- assayInfo: Cell viability assay (CellTiter 96), Vero cells
- Type: cell-based, African green monkey
- measurementContext: African green monkey, reading time not stated at the place (assay read at 36 and 72 h)
parameter: CC50

Query: Give the value of CC50 reported for the following: O=C(O)C1=CC(=C(c2ccc(O)c(C(=O)O)c2)c2ccc(O)c(C(=O)O)c2)C=CC1=O
Result: > 1 mM

###

- System: ZIKV Uganda/1947
- assayInfo: Microplaque reduction assay, ZIKV Uganda/1947 in Vero cells
- measurementContext: Zika virus, Vero, 48 h
parameter: pIC50
pIC50 is defined as minus the log10 of a concentration measured in mol/L.

Query: Give the value of pIC50 reported for the following: O=C(O)C1=CC(=C(c2ccc(O)c(C(=O)O)c2)c2ccc(O)c(C(=O)O)c2)C=CC1=O
Result: 4.82
